Values compiled from ChEMBL document CHEMBL1153229.

- tested system: Free fatty acid receptor 2 (Homo sapiens)
- Sequence (O15552 whole entry): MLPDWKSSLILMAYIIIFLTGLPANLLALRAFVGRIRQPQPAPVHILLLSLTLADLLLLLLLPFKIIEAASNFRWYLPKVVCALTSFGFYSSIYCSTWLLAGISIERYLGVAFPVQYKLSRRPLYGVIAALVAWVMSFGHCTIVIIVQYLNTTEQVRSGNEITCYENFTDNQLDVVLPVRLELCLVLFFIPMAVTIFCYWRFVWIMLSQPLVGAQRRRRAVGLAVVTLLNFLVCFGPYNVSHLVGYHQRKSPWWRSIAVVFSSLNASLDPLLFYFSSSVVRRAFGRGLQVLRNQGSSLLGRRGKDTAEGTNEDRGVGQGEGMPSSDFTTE
- assay text: Agonist activity at human FFA2 receptor expressed in CHO cells assessed as inhibition of forskolin-induced cAMP production
pIC50: −log10 of the molar value.
Please mark Condition met if the recorded pIC50 is equal to or greater than 5, and Condition not met if it falls below.

# compound, class
records = [
    ("CC(C)[C@H](CNc1nccs1)c1ccc(Cl)cc1", "Condition not met"),
    ("CC[C@H](C(=O)Nc1nccs1)c1ccc(Cl)cc1", "Condition met"),
    ("CC(C)C(C(=O)Nc1cccnc1)c1ccc(Cl)cc1 (racemic)", "Condition not met"),
    ("CC(C)(C)[C@H](C(=O)Nc1ncc(Br)s1)c1ccc(Cl)cc1", "Condition met"),
    ("CC(C)[C@H](C(=O)Nc1ccc(F)cn1)c1ccc(Cl)cc1", "Condition met"),
    ("CC(C)C[C@H](C(=O)Nc1nccs1)c1ccc(Cl)cc1", "Condition met"),
    ("CC(C)[C@H](NC(=O)c1nccs1)c1ccc(Cl)cc1", "Condition not met"),
    ("CC(C)[C@H](C(=O)Nc1ncc[nH]1)c1ccc(Cl)cc1", "Condition not met"),
    ("CC(C)[C@H](C(=O)Nc1ncc(C(N)=O)s1)c1ccc(Cl)cc1", "Condition not met"),
    ("CC(C)[C@H](C(=O)Nc1ncco1)c1ccc(Cl)cc1", "Condition not met"),
    ("CC(C)C(C(=O)Nc1nccs1)c1ccc(Cl)cc1 (racemic)", "Condition met"),
    ("CC(C)(C)[C@H](C(=O)Nc1ncc(S(C)(=O)=O)s1)c1ccc(Cl)cc1", "Condition met"),
    ("COCC[C@H](C(=O)Nc1nccs1)c1ccc(Cl)cc1", "Condition not met"),
    ("CC(C)[C@H](C(=O)Nc1ncc(C(=O)O)s1)c1ccc(Cl)cc1", "Condition not met"),
    ("CN(C)c1cnc(NC(=O)[C@H](c2ccc(Cl)cc2)C(C)(C)C)s1", "Condition met"),
    ("CC(C)(C)[C@H](C(=O)Nc1ncc(C(O)(C(F)(F)F)C(F)(F)F)s1)c1ccc(Cl)cc1", "Condition met"),
    ("CC(C)[C@H](C(=O)Nc1ncns1)c1ccc(Cl)cc1", "Condition met"),
    ("CC(C)(C)[C@H](C(=O)Nc1ncc(Cc2ccc(Cl)cc2)s1)c1ccc(Cl)cc1", "Condition not met"),
    ("CC(C)[C@H](C(=O)Nc1ncc(F)s1)c1ccc(Cl)cc1", "Condition met"),
    ("CC(C)[C@H](C(=O)Nc1ccccn1)c1ccc(Cl)cc1", "Condition met"),
    ("CC(C)[C@H](C(=O)Nc1ncc(C#N)s1)c1ccc(Cl)cc1", "Condition met"),
]

###

- tested system: Free fatty acid receptor 2 (Homo sapiens)
- Sequence (whole entry): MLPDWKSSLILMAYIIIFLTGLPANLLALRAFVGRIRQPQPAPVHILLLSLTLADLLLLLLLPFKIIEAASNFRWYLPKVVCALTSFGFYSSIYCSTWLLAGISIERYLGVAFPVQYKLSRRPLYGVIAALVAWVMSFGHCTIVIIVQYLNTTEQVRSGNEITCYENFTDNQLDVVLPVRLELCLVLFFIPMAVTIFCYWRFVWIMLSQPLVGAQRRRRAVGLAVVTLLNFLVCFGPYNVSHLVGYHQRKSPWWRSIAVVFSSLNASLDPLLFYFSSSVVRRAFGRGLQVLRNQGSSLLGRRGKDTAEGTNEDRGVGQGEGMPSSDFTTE
- assay text: Agonist activity at human FFA2 receptor expressed in CHO cells assessed as inhibition of forskolin-induced cAMP production relative to acetate
- Format: functional, cell-based
Please mark true if the recorded Efficacy is equal to or greater than 90%, and false if it falls below.

# molecular string, tested system, class
measured = [
    ("O=C(Nc1ncc(F)s1)[C@H](c1ccccn1)C1CC1", "Free fatty acid receptor 2 (Homo sapiens)", "false"),
    ("Cc1nc(NC(=O)[C@H](c2ccc(Cl)cc2)C(C)C)sc1C", "Free fatty acid receptor 2 (Homo sapiens)", "true"),
    ("CC(C)[C@H](C(=O)Nc1ncc(F)s1)c1ccc(Cl)cc1", "Free fatty acid receptor 2 (Homo sapiens)", "true"),
    ("CN(C)c1cnc(NC(=O)[C@H](c2ccc(Cl)cc2)C(C)(C)C)s1", "Free fatty acid receptor 2 (Homo sapiens)", "true"),
    ("CC(C)[C@H](C(=O)Nc1ncc[nH]1)c1ccc(Cl)cc1", "Free fatty acid receptor 2 (Homo sapiens)", "false"),
]

###

- assay text: Volume of distribution at steady state in Sprague-Dawley rat at 0.5 mg/kg, iv
- Type: ADME, organism-based
- Set-up: dose 0.5 mg/kg, route intravenous
- setup conditions: in vivo, read-out: Vdss
Please mark satisfied if the recorded Vd is equal to or greater than 4 L/kg, and not satisfied if it falls below.

# molecular string, class
rows = [
    ("CC(C)[C@H](C(=O)Nc1ncc(Cl)s1)c1ccc(Cl)cc1", "satisfied"),
    ("CC(C)(C)[C@H](C(=O)Nc1ncc(Cl)s1)c1ccc(Cl)cc1", "satisfied"),
    ("CC(C)[C@H](C(=O)Nc1nccs1)c1ccc(Cl)cc1", "satisfied"),
    ("CC(C)[C@H](C(=O)Nc1ncc(F)s1)c1ccc(Cl)cc1", "satisfied"),
    ("CC(C)(C)[C@H](C(=O)Nc1ncc(-c2ccccc2)s1)c1ccc(Cl)cc1", "not satisfied"),
]

###

- tested system: Free fatty acid receptor 2 (Homo sapiens)
- Sequence (O15552 whole entry): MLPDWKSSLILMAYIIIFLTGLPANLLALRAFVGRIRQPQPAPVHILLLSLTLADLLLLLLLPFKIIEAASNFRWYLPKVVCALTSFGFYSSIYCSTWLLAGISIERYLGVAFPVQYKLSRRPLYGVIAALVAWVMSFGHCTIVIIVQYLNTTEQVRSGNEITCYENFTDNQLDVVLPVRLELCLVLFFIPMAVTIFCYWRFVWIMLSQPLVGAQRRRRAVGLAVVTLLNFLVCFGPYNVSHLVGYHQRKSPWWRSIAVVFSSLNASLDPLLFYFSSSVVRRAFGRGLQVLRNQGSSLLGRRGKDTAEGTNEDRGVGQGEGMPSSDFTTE
- assay text: Agonist activity at human FFA2 receptor expressed in CHO cells assessed as inhibition of forskolin-induced cAMP production
pIC50: −log10 of the molar value.

# molecule, pIC50
rows = [
    ("CC(C)[C@H](C(=O)Nc1ccccc1)c1ccc(Cl)cc1", "< 4.00"),
    ("CC(C)[C@H](C(=O)NCc1ccccc1)c1ccc(Cl)cc1", "< 4.00"),
    ("CC(C)C(C(=O)O)c1ccc(Cl)cc1 (racemic)", "< 4.00"),
]

###

- tested system: Free fatty acid receptor 2 (Homo sapiens)
- Sequence (O15552 whole entry): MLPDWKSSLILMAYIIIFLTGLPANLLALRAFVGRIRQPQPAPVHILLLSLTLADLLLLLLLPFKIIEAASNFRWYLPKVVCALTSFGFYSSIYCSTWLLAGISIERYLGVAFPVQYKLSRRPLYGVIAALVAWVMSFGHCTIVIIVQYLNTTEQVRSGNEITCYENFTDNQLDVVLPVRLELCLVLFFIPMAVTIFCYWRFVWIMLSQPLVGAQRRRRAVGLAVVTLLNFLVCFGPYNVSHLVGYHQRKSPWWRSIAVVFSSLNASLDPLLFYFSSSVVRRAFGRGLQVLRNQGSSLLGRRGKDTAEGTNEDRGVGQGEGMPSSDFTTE
- assay text: Agonist activity at human FFA2 receptor expressed in CHO cells assessed as inhibition of forskolin-induced cAMP production

# compound, IC50
data = [
    ("CC(C)[C@H](C(=O)NC(C)(C)C)c1ccc(Cl)cc1", "> 100 µM"),
    ("O=C(Nc1ncc(F)s1)C1(c2ccc(Cl)cc2)CC1", "> 100 µM"),
    ("CC(C)C(C(N)=O)c1ccc(Cl)cc1 (racemic)", "> 100 µM"),
]

###

Property: Efficacy; scope: individual compounds
- tested system: Free fatty acid receptor 2 (Homo sapiens) (UniProt O15552)
- assay text: Agonist activity at human FFA2 receptor expressed in CHO cells assessed as inhibition of forskolin-induced cAMP production relative to acetate
- Format: functional, cell-based

# compound, Efficacy
measured = [
    ("CC(C)[C@H](NC(=O)c1nccs1)c1ccc(Cl)cc1", "< 30%"),
    ("CC(C)[C@H](C(=O)NC(C)(C)C)c1ccc(Cl)cc1", "< 30%"),
    ("CC(C)C(C(N)=O)c1ccc(Cl)cc1 (racemic)", "< 30%"),
    ("CC(C)[C@@H](C(=O)Nc1nccs1)c1ccc(Cl)cc1", "< 30%"),
    ("CC(C)C(c1ccc(Cl)cc1)S(=O)(=O)Nc1nccs1 (racemic)", "< 30%"),
    ("CC(C)[C@H](CNc1nccs1)c1ccc(Cl)cc1", "< 30%"),
    ("CC(C)C(C(=O)Nc1nc(-c2cccnc2)cs1)c1ccc(Cl)cc1 (racemic)", "< 30%"),
    ("CC(C)[C@H](C(=O)Nc1cc[nH]n1)c1ccc(Cl)cc1", "< 30%"),
    ("CC(C)C(C(=O)O)c1ccc(Cl)cc1 (racemic)", "< 30%"),
    ("CC(C)C(C(=O)Nc1nnn[nH]1)c1ccc(Cl)cc1 (racemic)", "< 30%"),
    ("CC(C)[C@H](C(=O)Nc1ccccc1)c1ccc(Cl)cc1", "< 30%"),
    ("O=C(Nc1ncc(F)s1)C1(c2ccc(Cl)cc2)CC1", "< 30%"),
    ("CC(C)(C)[C@H](C(=O)Nc1ncc(C(F)(F)F)s1)c1ccc(Cl)cc1", "95%"),
    ("CC(C)[C@H](C(=O)Nc1nnc(C(F)(F)F)s1)c1ccc(Cl)cc1", "115%"),
    ("O=C(Nc1nccs1)C(c1ccc(Cl)cc1)c1ccc(Cl)cc1", "< 30%"),
    ("CNC(=O)[C@H](c1ccc(Cl)cc1)C(C)C", "66%"),
    ("CC(=O)O", "100%"),
    ("CC(C)(C)[C@H](C(=O)Nc1ncc(-c2ccccc2)s1)c1ccc(Cl)cc1", "111%"),
    ("CC(C)[C@H](C(=O)Nc1ccc(F)cn1)c1ccc(Cl)cc1", "93%"),
    ("CC(C)[C@H](C(=O)Nc1ncc(C(N)=O)s1)c1ccc(Cl)cc1", "59%"),
    ("CS(=O)(=O)c1ccc([C@@H](C(=O)Nc2ncc(F)s2)C2CC2)cc1", "< 30%"),
    ("CC(C)[C@H](C(=O)Nc1nncs1)c1ccc(Cl)cc1", "115%"),
    ("CC(C)C[C@H](C(=O)Nc1nccs1)c1ccc(Cl)cc1", "68%"),
]
